# TEST_TARGET: Recombinant human HSD17B13 enzyme (Homo sapiens (Human), UniProt Q7Z5P4)
# Sequence (Q7Z5P4 20-300): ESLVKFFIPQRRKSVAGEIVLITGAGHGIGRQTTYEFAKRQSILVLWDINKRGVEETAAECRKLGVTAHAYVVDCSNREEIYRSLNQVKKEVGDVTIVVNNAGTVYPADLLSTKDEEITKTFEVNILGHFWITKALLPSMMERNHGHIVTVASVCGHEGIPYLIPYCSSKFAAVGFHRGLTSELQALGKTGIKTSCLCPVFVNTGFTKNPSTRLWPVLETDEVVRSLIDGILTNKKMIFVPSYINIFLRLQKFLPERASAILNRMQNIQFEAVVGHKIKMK
# TEST_METHOD_NOTES: HSD17b13 NAD(P)H-Glo Biochemical Assay
# APPLIED_CONDITIONS: 50 uM estradiol, 1 mM NAD+; read-out: HSD17β13 IC50
pIC50: −log10 of the molar value.
Please provide measured pIC50 for the entries that follow.

## Task # pIC50 lookup, item Cc1nn(-c2cc(C(F)(F)F)c(F)c(O)c2F)c2cnc(N3CCN(S(=O)(=O)c4cnn(C)c4)CC34CC4)cc12
## Result > 7.00

## Task # pIC50 lookup, item CS(=O)(=O)Nc1ccc(-c2ccc3c(cnn3-c3ccc(F)c(O)c3)c2)cc1
## Result 6.00 to 7.00

## Task # pIC50 lookup, item Oc1cc(-n2ncc3cc(N4CCOCC4)ncc32)cc(C(F)(F)F)c1F
## Result 6.00 to 7.00

## Task # pIC50 lookup, item Cc1nn(-c2cc(O)c(F)c(NC(=O)C(F)(F)F)c2)c2cnc(N3CCOCC34CC4)cc12
## Result 4.52 to 6.00

====

# TEST_TARGET: Recombinant human HSD17B13 enzyme (Homo sapiens (Human))
# TEST_METHOD_NOTES: HSD17b13 NAD(P)H-Glo Biochemical Assay
# APPLIED_CONDITIONS: 50 uM estradiol, 1 mM NAD+; read-out: HSD17β13 IC50
ASSAY_METRIC: IC50

## Task # IC50 lookup, item Cc1nn(-c2cc(C(F)(F)F)c(F)c(O)c2F)c2cc(F)c(N3CCOCC34CC4)cc12
## Result < 100 nM

## Task # IC50 lookup, item Oc1cc(-n2ncc3cc(-c4cncc(F)c4)ccc32)cc(F)c1F
## Result 100 to 1000 nM

## Task # IC50 lookup, item CS(=O)(=O)N1CCN(c2cc3cnn(-c4ccc(F)c(O)c4)c3cn2)CC1
## Result 1000 to 30000 nM

## Task # IC50 lookup, item CS(=O)(=O)N1CCN(c2cc3cn(-c4cc(O)c(F)c(Cl)c4)nc3cn2)CC1
## Result 100 to 1000 nM

## Task # IC50 lookup, item NC(=O)c1ccc(-c2ccc3c(cnn3-c3ccc(F)c(O)c3)c2)c(Cl)c1
## Result 100 to 1000 nM

## Task # IC50 lookup, item COC1CCN(c2ccc3c(cnn3-c3ccc(F)c(O)c3)c2)CC1
## Result 1000 to 30000 nM

## Task # IC50 lookup, item Oc1cc(-n2ncc3cc(-c4ccc(O)c(Cl)c4)ccc32)cc(C(F)(F)F)c1
## Result 100 to 1000 nM

## Task # IC50 lookup, item CS(=O)(=O)N1CCN(c2cc3cnn(-c4ccc(Cl)c(O)c4)c3cn2)CC1
## Result 1000 to 30000 nM

## Task # IC50 lookup, item Cc1nn(-c2cc(C(F)(F)F)c(F)c(O)c2F)c2cc(Cl)c(N3CCOCC34CC4)nc12
## Result < 100 nM

## Task # IC50 lookup, item CC1(C)CC=C(c2ccc3c(cnn3-c3cc(O)c(F)c(C(F)(F)F)c3)c2)CC1
## Result 100 to 1000 nM

## Task # IC50 lookup, item CC1(c2ccc3c(cnn3-c3cc(O)c(F)c(F)c3)c2)CCN(S(C)(=O)=O)CC1
## Result 1000 to 30000 nM

## Task # IC50 lookup, item Cc1cc(-n2ncc3cc(N4CCN(S(C)(=O)=O)CC4)ncc32)cc(O)c1F
## Result 1000 to 30000 nM

## Task # IC50 lookup, item CC(C)c1nn(-c2cc(O)c(F)c(F)c2)c2ccc(N3CCN(S(C)(=O)=O)CC3)cc12
## Result 1000 to 30000 nM

## Task # IC50 lookup, item N#Cc1cc(O)ccc1-c1ccc2c(cnn2-c2ccc(F)c(O)c2)c1
## Result 100 to 1000 nM

## Task # IC50 lookup, item CS(=O)(=O)N1CCN(c2cc3cnn(-c4ccc(C(F)(F)F)c(O)c4F)c3cn2)CC1
## Result 1000 to 30000 nM

## Task # IC50 lookup, item Cc1nn(-c2cc(C(F)(F)F)c(F)c(O)c2F)c2cnc(N3CCN(c4ccccc4)CC3)cc12
## Result 100 to 1000 nM
